Reported IC50 is given for each of the following compounds.
Target: LSD1 (Homo sapiens, UniProt O60341)
Experiment: LSD1 enzymatic assay
Assay type: biochemical
Settings: read-out: IC50 (μM) against LSD1
Value Kind: IC50

>>> df
                                   compound  value_kind  measured_value
0  Cc1ccc(-c2noc(-c3ccc(=O)n(CC(=O)Nc4ccc(C)cc4Br)c3)n2)cc1 [D-11]        IC50        > 100 µM
1  COc1ccccc1NC(=O)Cn1cc(-c2nc(-c3ccc(C)cc3)no2)ccc1=O [D-5]        IC50         21.5 µM
2  COC(=O)c1sccc1NC(=O)Cn1cc(-c2nc(-c3ccc(C)cc3)no2)ccc1=O [D-15]        IC50        > 100 µM
3  COc1cc(Cl)c(C)cc1NC(=O)Cn1cc(-c2nc(-c3ccc(C)cc3)no2)ccc1=O [D-12]        IC50        > 100 µM
4  CCOc1ccccc1NC(=O)Cn1cc(-c2nc(-c3ccc(C)cc3)no2)ccc1=O [D-6]        IC50        > 100 µM

###

Below, each of the molecules is paired with its reported Relative potency % value.
Molecular target: LSD1 (Homo sapiens)
Assay: LSD1 enzymatic assay
Assay type: biochemical
Value Kind: Relative potency % (%)

In [3]: df
Out[3]:
                                 smiles_str  measured_value
0  Cc1ccc(-c2noc(-c3ccc(=O)n(CC(=O)Nc4ccccc4C(F)(F)F)c3)n2)cc1             0.4
1  Cc1ccc(-c2noc(-c3cccn(CC(=O)Nc4ccccc4Br)c3=O)n2)cc1             0.5
2  Cc1ccc(-c2noc(-c3ccc(=O)n(CC(=O)NCc4ccccc4)c3)n2)cc1             0.5
3  CCN(CC)c1ccc(/C=C2/C(=O)NC(=O)N(c3ccc(Cl)cc3)C2=O)c(O)c1             3.7
4  COc1ccccc1NC(=O)Cn1cc(-c2nc(-c3ccc(C)cc3)no2)ccc1=O             0.7
5  CCCc1noc(-c2ccc(=O)n(CC(=O)Nc3ccccc3Br)c2)n1             0.8
6  CCN(CC)c1ccc(/C=C2/C(=O)NC(=O)N(c3ccc(C(F)(F)F)cc3)C2=O)c(O)c1             0.4
7  Cc1ccc(-c2noc(-c3ccc(=O)n(CC(=O)Nc4ccc(Br)cc4)c3)n2)cc1             0.5
8  Cc1noc(-c2ccc(=O)n(CC(=O)Nc3ccccc3Br)c2)n1             0.5
9  Cc1ccc(-c2noc(-c3ccc(=O)n(CC(=O)Nc4ccccc4Br)c3)n2)cc1             2.5

###

Biological target: LSD1 (Homo sapiens, UniProt O60341)
Test: LSD1 enzymatic assay;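 for Bottom: percent inhibition of LSD1 activity from the fitted dose-response curve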
Assay type: biochemical
Conditions: concentration-response curve fit parameter
// label = condition met if Bottom is not less than -0.07, otherwise condition not met

>>> print(df.to_string())
                                 smiles_str        class_label
0  COc1ccccc1NC(=O)Cn1cc(-c2nc(-c3ccc(C)cc3)no2)ccc1=O      condition met
1  CCN(CC)c1ccc(/C=C2/C(=O)NC(=O)N(c3ccc(Cl)cc3)C2=O)c(O)c1  condition not met
2  Cc1ccc(-c2noc(-c3ccc(=O)n(CC(=O)Nc4ccc(Br)cc4)c3)n2)cc1      condition met
3  Cc1noc(-c2ccc(=O)n(CC(=O)Nc3ccccc3Br)c2)n1  condition not met
